biological target: human Edg-1(S1P1) (Homo sapiens); construct: expressed in transfected cells; host or cells: HEK-293; assay: Cell system binding test: inhibition of [3H]-S1P binding to Edg-1(S1P1) gene transferred HEK-293 cells; details: 10 μM compound, [3H]-S1P 10 nM, read-out: Cell system binding test % inhibition (10 μM)
readoutType: inhibition at 10 µM (%)
Give bare numbers, in %.

Known inhibition at 10 µM results, listed for orientation:
>>> reading("CCOc1nnc([C@@H](C)NS(=O)(=O)c2ccc(C)cc2)n1CC [Compound 429]")
95.1
>>> reading("CCn1c(OCCN2CCOCC2)nnc1[C@@H](C)NS(=O)(=O)c1ccc(Cl)cc1 [Compound 393]")
82.4
>>> reading("CCn1c(OC)nnc1[C@@H](C)NS(=O)(=O)c1cccc(C(F)(F)F)c1 [Compound 245]")
96.8
>>> reading("CCOc1nnc([C@@H](C)NS(=O)(=O)c2ccc([N+](=O)[O-])cc2)n1CC [Compound 413]")
100
>>> reading("CCn1c(OC)nnc1[C@@H](C)NS(=O)(=O)c1cccnc1 [Compound 373]")
73.4

Required: inhibition at 10 µM, one value per compound below.
1. CCn1c(OC)nnc1[C@@H](C)NS(=O)(=O)c1ccsc1 [Compound 342]
2. CCCCSc1nnc([C@@H](C)NS(=O)(=O)c2ccc(Cl)cc2)n1CC [Compound 29]

// result
1: 88.4; 2: 93

Required: inhibition at 10 µM, one value per compound below.
1. CC#CCSc1nnc([C@@H](C)NS(=O)(=O)c2ccc(Cl)cc2)n1CC [Compound 27]
2. CCOc1nnc([C@@H](C)NS(=O)(=O)c2ccc(Br)c(C(F)(F)F)c2)n1CC [Compound 437]
3. CCn1c(SCC2CCO2)nnc1[C@@H](C)NS(=O)(=O)c1ccc(Cl)cc1 (some centres unmarked) [Compound 31]
4. CCn1c(OC)nnc1[C@@H](C)NS(=O)(=O)c1cc(Cl)ccc1OC [Compound 300]
5. CCn1c(OC)nnc1[C@@H](C)NS(=O)(=O)c1ccc(-c2cnco2)s1 [Compound 345]
6. CCn1c(OC)nnc1[C@@H](C)NS(=O)(=O)c1ccc(-c2cnco2)cc1 [Compound 346]

// result
1. 86.9
2. 101
3. 90.2
4. 95
5. 88.5
6. 38.5

Required: inhibition at 10 µM, one value per compound below.
1. CCn1c(SCc2cccc(C#N)c2)nnc1[C@@H](C)NS(=O)(=O)c1ccc(Cl)cc1 [Compound 7]
2. CCOc1nnc([C@@H](C)NS(=O)(=O)c2cc(F)c(Br)cc2F)n1CC [Compound 451]
3. CCn1c(OC)nnc1[C@@H](C)NS(=O)(=O)c1ccccc1I [Compound 283]
4. CCCCS(=O)(=O)N[C@H](C)c1nnc(OC)n1CC [Compound 202]
5. CCn1c(OCCC(C)C)nnc1[C@@H](C)NS(=O)(=O)c1ccc(Cl)cc1 [Compound 391]
6. C#CCSc1nnc([C@@H](C)NS(=O)(=O)c2ccc(Cl)cc2)n1CC [Compound 4]
7. CCn1c(SC2CCC2)nnc1[C@@H](C)NS(=O)(=O)c1ccc(Cl)cc1 [Compound 55]

// result
88.5
94.2
73.9
96.6
92.5
86.8
94.3

Required: inhibition at 10 µM, one value per compound below.
1. CCn1c(SCC=C(C)C)nnc1[C@@H](C)NS(=O)(=O)c1ccc(Cl)cc1 [Compound 28]
2. CCn1c(OC)nnc1[C@@H](C)NS(=O)(=O)c1ccc2c(c1)OCCN2C [Compound 344]
3. CCn1c(OC)nnc1[C@@H](C)NS(=O)(=O)c1ccc(C)c(Cl)c1 [Compound 215]
4. CCn1c(OC)nnc1[C@@H](C)NS(=O)(=O)c1ccc(OC(F)F)cc1 [Compound 309]
5. CCn1c(OC)nnc1[C@@H](C)NS(=O)(=O)c1cccc(C(C)=O)c1 [Compound 355]
6. CCn1c(OC2CCOC2)nnc1[C@@H](C)NS(=O)(=O)c1ccc(Cl)cc1 (some centres unmarked) [Compound 392]
7. C=CCSc1nnc(C(Cc2ccccc2)NS(=O)(=O)c2ccc(F)cc2)n1CC (centres unmarked) [Compound 169]

// result
93.1
102
98.3
93.2
101
95.6
67.5

Required: inhibition at 10 µM, one value per compound below.
1. CCn1c(OC)nnc1[C@@H](C)NS(=O)(=O)Cc1cccc(C(F)(F)F)c1 [Compound 295]
2. CCn1c(OC)nnc1[C@@H](C)NS(=O)(=O)c1ccc(Br)c(Br)c1 [Compound 272]
3. CCn1c(SCC2CCN(Cc3ccccc3)CC2)nnc1[C@@H](C)NS(=O)(=O)c1ccc(Cl)cc1 [Compound 72]
4. CCn1c(OCC(C)(C)C)nnc1[C@@H](C)NS(=O)(=O)c1ccc(Cl)cc1 [Compound 377]
5. CCn1c(OC)nnc1[C@@H](C)NS(=O)(=O)c1ccc2[nH]c(=O)oc2c1 [Compound 443]
6. CCn1c(SCC(=O)OC)nnc1[C@@H](C)NS(=O)(=O)c1ccc(Cl)cc1 [Compound 24]
7. CCn1c(OC)nnc1[C@@H](C)NS(=O)(=O)c1ccc(OC)c(OC)c1 [Compound 221]

// result
1: 66.1; 2: 102; 3: 89.8; 4: 97.9; 5: 31.3; 6: 82.6; 7: 89.9

// query Any idea what inhibition at 10 µM was measured for CCn1c(OC)nnc1[C@@H](C)NS(=O)(=O)c1ccc(C)c(F)c1 [Compound 315] ?
// result 100

----------
target: human Edg-1(S1P1) (Homo sapiens, UniProt P21453); construct: expressed in transfected cells; host or cells: HEK-293; assay: Cell system binding test: inhibition of [3H]-S1P binding to Edg-1(S1P1) gene transferred HEK-293 cells; settings: 10 μM compound, [3H]-S1P 10 nM, read-out: Cell system binding test % inhibition (10 μM)
Sequence (P21453 whole entry): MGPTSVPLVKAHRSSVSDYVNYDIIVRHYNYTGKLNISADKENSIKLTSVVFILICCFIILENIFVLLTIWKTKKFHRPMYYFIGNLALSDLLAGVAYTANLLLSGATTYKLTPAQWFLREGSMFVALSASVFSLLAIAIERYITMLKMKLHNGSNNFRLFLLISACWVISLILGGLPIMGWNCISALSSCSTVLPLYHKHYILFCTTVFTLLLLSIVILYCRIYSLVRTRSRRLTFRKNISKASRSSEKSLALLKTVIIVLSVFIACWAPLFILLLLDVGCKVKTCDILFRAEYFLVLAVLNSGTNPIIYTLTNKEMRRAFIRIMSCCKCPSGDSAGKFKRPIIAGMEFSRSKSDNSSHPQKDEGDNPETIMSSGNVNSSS
Exercise: state measured inhibition at 10 µM for each of the compounds provided.
One number for each entry, in %.

Known inhibition at 10 µM results, listed for orientation:
>>> reading("CCn1c(OC)nnc1[C@@H](C)NS(=O)(=O)c1ccc([N+](=O)[O-])cc1 [Compound 233]")
99.8
>>> reading("CCn1c(OC)nnc1[C@@H](C)NS(=O)(=O)c1ccc(C(F)(F)F)cc1 [Compound 249]")
101
>>> reading("CCn1c(OC)nnc1[C@@H](C)NS(=O)(=O)c1cccc(OC(F)F)c1 [Compound 310]")
98.5

Required: inhibition at 10 µM, one value per compound below.
1. CCn1c(OC)nnc1C(CCc1ccccc1)NS(=O)(=O)c1ccc(Cl)cc1 (centres unmarked) [Compound 441]
2. CCN(CCSc1nnc([C@@H](C)NS(=O)(=O)c2ccc(Cl)cc2)n1CC)c1ccccc1 [Compound 75]
3. CCn1c(OC)nnc1[C@@H](C)NS(=O)(=O)c1cccc(C)c1 [Compound 248]
4. CCn1c(SCc2cccc(N(C)C)c2)nnc1[C@@H](C)NS(=O)(=O)c1ccc(Cl)cc1 [Compound 71]

// result
1: 14.7; 2: 92.7; 3: 99.5; 4: 89.7

// query Return inhibition at 10 µM measured with human Edg-1(S1P1) (Homo sapiens, UniProt P21453) given this compound: CCn1c(OC)nnc1[C@@H](C)NS(=O)(=O)c1ccccc1OC(F)(F)F [Compound 276]
// result 88.9

----------
Molecular target: human Edg-1(S1P1) (Homo sapiens)
Construct: expressed in transfected cells; host or cells: HEK-293
Assay: Membrane system binding test: inhibition of [33P]-S1P binding to the membrane fraction of Edg-1(S1P1) gene transferred HEK-293 cells
Conditions: 10 μM compound; [33P]-S1P 0.1 nM; membrane fraction of Edg-1(S1P1) gene transferred HEK-293 cells; read-out: Membrane system binding test % inhibition (10 μM)
Experimental: The membrane fraction was obtained by treating the cells with a solubilizing buffer (1 mM Tris/HCl, pH 7.2) for 10 minutes on ice, centrifuging the system (1000×g, 5 min) to remove insoluble fractions, and then centrifuging the system (40000×g, 30 min, 4° C.). […] To the filter, 25 μL Microscint 0 (produced by Perkin-Elmer) was added, and the assay system was measured for radioactivity by means of Top Count NXT (Packard). […]
readoutType: inhibition at 10 µM (%)
Answers are plain numbers, in %.

>>> reading("Cn1c(SCc2ccc(Cl)c(Cl)c2)nnc1C(Cc1ccccc1)NS(=O)(=O)c1ccc(Cl)cc1 (centres unmarked)")
57.1
>>> reading("CCn1c(OC)nnc1[C@@H](C)NS(=O)(=O)c1cccc2c(N(C)C)cccc12")
40.2
>>> reading("CCn1c(SCCc2ccncc2)nnc1[C@@H](C)NS(=O)(=O)c1ccc(Cl)cc1")
92.7
>>> reading("C=C(C)CSc1nnc(C(Cc2ccccc2)NS(=O)(=O)c2ccc(Cl)cc2)n1C (centres unmarked)")
94.7

Required: inhibition at 10 µM, one value per compound below.
1. CCn1c(OC2CCCC2)nnc1[C@@H](C)NS(=O)(=O)c1ccc(Cl)cc1
2. CCn1c(OC)nnc1[C@@H](C)NS(=O)(=O)c1ccc(C#N)cc1
3. CCCOc1nnc([C@@H](Cc2ccccc2)NS(=O)(=O)c2ccc(Cl)cc2)n1CC

// result
1: 99.6; 2: 51.4; 3: 99.5

// query Any idea what inhibition at 10 µM was measured for CCn1c(SCC2CC2)nnc1[C@@H](C)NS(=O)(=O)c1ccc(Cl)cc1 ?
// result 54.3

# credit: patent US8022225B2
